- System: S. pneumoniae ATCC 49619
- run.description: NCCLS broth microdilution MIC, S. pneumoniae ATCC 49619
- Format: cell-based, Streptococcus pneumoniae
- condition.summary: organism H = S. pneumoniae ATCC 49619
observable: Minimum Inhibitory Concentration (MIC)

The cases that follow already have their Minimum Inhibitory Concentration (MIC) on record.
[[record]]
compound = "Cn1cc(NC(=O)c2cc(NC(=O)c3cc(NC(=O)c4cc5ccccc5cn4)cn3C)c[nH]2)cc1C(=O)NCCCNC1CCCCC1 [Ib-92]"
observable = "Minimum Inhibitory Concentration (MIC)"
meas_value = "+++ (+++ = MIC ≦ 4)"

[[record]]
compound = "CN(C)CCSCCn1cc(NC(=O)c2cc3ccccc3cn2)cc1C(=O)Nc1cc(C(=O)Nc2cc(C(=O)NCCN3CCSCC3)n(C)c2)n(C)c1 [Ib-80]"
observable = "Minimum Inhibitory Concentration (MIC)"
meas_value = "+++ (+++ = MIC ≦ 4)"

[[record]]
compound = "Cn1cc(NC(=O)c2cc3ccccc3cn2)cc1C(=O)Nc1cc(C(=O)Nc2cc(C(=O)NCCN3CCCCC3)n(CCN3CCCCC3)c2)n(C)c1 [Ib-68]"
observable = "Minimum Inhibitory Concentration (MIC)"
meas_value = "+++ (+++ = MIC ≦ 4)"

[[record]]
compound = "CCN(CCO)CCNC(=O)c1cc(NC(=O)c2ccc(NC(=O)c3cc(NC(=O)c4cc5ccccc5cn4)cn3C)cc2)cn1C [Ic-18]"
observable = "Minimum Inhibitory Concentration (MIC)"
meas_value = "+++ (+++ = MIC ≦ 4)"

[[record]]
compound = "Cn1cc(NC(=O)c2cc(NC(=O)c3cc(NC(=O)c4cc5ccccc5cn4)cs3)cn2C)cc1C(=O)NCCN1CCOCC1 [Ib-51]"
observable = "Minimum Inhibitory Concentration (MIC)"
meas_value = "+++ (+++ = MIC ≦ 4)"


Field Minimum Inhibitory Concentration (MIC) (system: S. pneumoniae ATCC 49619) for entry Cn1cc(NC(=O)c2ccc(NC(=O)c3cc(NC(=O)c4cc5ccccc5cn4)cn3C)cc2)cc1C(=O)NCCN1CCC(O)CC1 [Ic-8] = +++ (+++ = MIC ≦ 4)

Field Minimum Inhibitory Concentration (MIC) (system: S. pneumoniae ATCC 49619) for entry CCN(CC)CCNC(=O)c1cc(NC(=O)c2ccc(NC(=O)c3cc(NC(=O)c4cc5ccccc5cn4)cn3C)cc2)cn1C [Ic-9] = +++ (+++ = MIC ≦ 4)

====

- Tested on: C. albicans ATCC 38247
observable: MIC

The cases that follow already have their MIC on record.
[[record]]
compound = "Cn1cc(NC(=O)c2cc(NC(=O)c3cc(NC(=O)c4cc5ccccc5cn4)no3)cn2C)cc1C(=O)NCCN1CCOCC1 [Ib-60]"
meas_value = "> 32 µg/mL"

[[record]]
compound = "Cn1cc(NC(=O)c2ccc(NC(=O)c3cc(NC(=O)c4cc5ccccc5cn4)cn3C)cc2)cc1C(=O)NCCN1CCOCC1 [Ic-1]"
meas_value = "> 32 µg/mL"

[[record]]
compound = "Cn1cc(NC(=O)c2cc(NC(=O)c3cc(NC(=O)c4cc5ccccc5cn4)c[nH]3)cn2C)cc1C(=O)NCCN1CCSCC1 [Ib-75]"
meas_value = "> 32 µg/mL"


Field MIC (system: C. albicans ATCC 38247) for entry Cn1cc(NC(=O)c2cc3ccccc3cn2)cc1C(=O)Nc1cc(C(=O)Nc2cc(C(=O)NCCN3CCOCC3)n(CCN3CCOCC3)c2)n(C)c1 [Ib-56] = > 32 µg/mL

Field MIC (system: C. albicans ATCC 38247) for entry Cn1cc(NC(=O)c2cc3ccccc3cn2)cc1C(=O)Nc1cc(C(=O)Nc2ccc3sc(C(=O)NCCN4CCOCC4)cc3c2)n(C)c1 [Id-1] = > 32 µg/mL

====

- measured.on: target sequence ACAATTAAT, 352 bp fragment of Plasmid B
- run.description: Quantitative DNase I footprint titration, […]
- condition.summary: 352 bp/B, pH 7.0, 22° C., read-out: Dissociation Constant Kd
observable: Kd (nM)
Supply the numeric figure in nM, leaving out any unit text.

Sure, the documented Kd for Cn1cc(NC(=O)c2cc3ccccc3cn2)cc1C(=O)Nc1cc(C(=O)Nc2cc(C(=O)NCCN3CCCCC3)ns2)n(C)c1 [Ib-59] is 1
